testDescription: Inhibition of pig brain tubulin polymerization by spectrophotometric method
Assay type: tissue-based, Sus scrofa
Listed molecules paired with reported pIC50
Interpret pIC50 as the negative base-10 log of the concentration measured in mol/L.

Answered cases to consult:
COc1ccc(/C=C\c2cc(OC)c(OC)c(OC)c2)cc1OCc1ccc(CNCCNC(C)=O)cc1 : 4.22
COc1ccc(/C=C\c2cc(OC)c(OC)c(OC)c2)cc1OCc1ccc(CN2CCCCC2C(=O)NCCNC(=O)OC(C)(C)C)cc1 (stereo not given) : 3.70

We next turn to a different molecule, shown below.
// pIC50 value for COc1ccc(/C=C\c2cc(OC)c(OC)c(OC)c2)cc1O [COMBRETASTATIN A4] : 5.37

###

Tested on: HeLa
testDescription: Antiproliferative activity against human HeLa cells assessed as reduction in cell viability measured after 48 hrs by CCK8 assay
Type: functional, cell-based
Known pIC50 of a selection of compounds
Convention used: pIC50 is expressed as -log10 of the molar concentration.

COc1ccc(/C=C\c2cc(OC)c(OC)c(OC)c2)cc1OCc1ccc(CN2CCCCC2C(=O)NCCN)cc1 (centres undefined) : 5.14

# input for lookup
Reported pIC50 for COc1ccc(/C=C\c2cc(OC)c(OC)c(OC)c2)cc1OCc1ccc(CO)cc1 was 5.12

###

Tested on: HeLa
testDescription: Antiproliferative activity against human HeLa cells assessed as reduction in cell viability measured after 48 hrs by CCK8 assay
Format: functional, cell-based
propertyName: pIC50
Field pIC50 (float): negative decimal logarithm of the concentration in molar.

Example entries begin here.
COc1ccc(/C=C\c2cc(OC)c(OC)c(OC)c2)cc1OCc1ccc(CNCCNC(C)=O)cc1 : 5.19
COc1ccc(/C=C\c2cc(OC)c(OC)c(OC)c2)cc1OCc1ccc(CNCCO)cc1 : 5.36

Consider the record given below.
Sure, the documented pIC50 for COc1ccc(/C=C\c2cc(OC)c(OC)c(OC)c2)cc1OCc1ccc(CN2C[C@H](O)[C@@H](F)C2)cc1 is 5.04

###

testDescription: Antiproliferative activity against human A549/PTX cells assessed as reduction in cell viability measured after 48 hrs by CCK8 assay
Format: functional, cell-based
protocolConditions: A549/Taxol
propertyName: IC50

Look over these answered cases.
COc1ccc(/C=C\c2cc(OC)c(OC)c(OC)c2)cc1OCc1ccc(CN2C[C@H](O)[C@@H](F)C2)cc1 : 19.2 µM
COc1ccc(/C=C\c2cc(OC)c(OC)c(OC)c2)cc1OCc1ccc(CN2C[C@H](O)C[C@@H]2C(=O)O)cc1 : > 20 µM

Next, consider the following compound.
response.value for COc1ccc(/C=C\c2cc(OC)c(OC)c(OC)c2)cc1OCc1ccc(CN2CC[C@@H](C(=O)O)C2)cc1 (field: IC50) = > 20 µM

###

IC50 values by entry
measurementTarget: Programmed cell death protein 1/Programmed cell death 1 ligand 1 (Homo sapiens)
Sequence (Q15116 whole entry): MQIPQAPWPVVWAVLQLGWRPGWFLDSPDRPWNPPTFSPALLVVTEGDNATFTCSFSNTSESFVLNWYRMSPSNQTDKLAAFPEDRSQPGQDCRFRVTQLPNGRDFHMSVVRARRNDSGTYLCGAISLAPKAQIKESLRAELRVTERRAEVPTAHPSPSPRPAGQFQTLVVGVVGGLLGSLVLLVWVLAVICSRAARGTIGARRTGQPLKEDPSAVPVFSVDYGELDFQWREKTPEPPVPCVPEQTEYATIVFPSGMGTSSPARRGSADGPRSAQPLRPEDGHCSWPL
Sequence (Q9NZQ7 whole entry): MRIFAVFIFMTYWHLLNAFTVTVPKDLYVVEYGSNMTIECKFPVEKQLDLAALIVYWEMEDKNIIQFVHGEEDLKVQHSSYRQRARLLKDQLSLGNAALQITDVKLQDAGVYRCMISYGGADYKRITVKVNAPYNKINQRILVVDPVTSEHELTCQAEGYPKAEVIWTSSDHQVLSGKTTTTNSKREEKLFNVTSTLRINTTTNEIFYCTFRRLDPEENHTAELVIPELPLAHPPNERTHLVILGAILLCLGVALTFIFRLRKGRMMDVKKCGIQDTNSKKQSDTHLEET
testDescription: Inhibition of PD1/PDL1 (unknown origin) protein-protein interaction measured after 15 mins by HTRF assay
Your answer should be a plain number; it is taken to be in µM.

Solved cases below.
COc1ccc(/C=C\c2cc(OC)c(OC)c(OC)c2)cc1OCc1ccc(CNCCNC(C)=O)cc1 : 44.8
COc1ccc(/C=C\c2cc(OC)c(OC)c(OC)c2)cc1OCc1ccc(CNCCO)cc1 : 90.5
COc1ccc(/C=C\c2cc(OC)c(OC)c(OC)c2)cc1OCc1ccc(CN[C@H](C(=O)O)[C@@H](C)O)cc1 : 50.7
COc1ccc(/C=C\c2cc(OC)c(OC)c(OC)c2)cc1OCc1ccc(CN2C[C@H](O)[C@@H](F)C2)cc1 : 52
COc1ccc(/C=C\c2cc(OC)c(OC)c(OC)c2)cc1OCc1ccc(CN2CC[C@H](O)C2)cc1 : 90
COc1ccc(/C=C\c2cc(OC)c(OC)c(OC)c2)cc1OCc1ccc(CN2CCCCC2C(=O)NCCN)cc1 (stereo unspecified) : 65.7

Measured on Programmed cell death protein 1/Programmed cell death 1 ligand 1 (Homo sapiens), COc1ccc(/C=C\c2cc(OC)c(OC)c(OC)c2)cc1OCc1ccc(CN2CC[C@H](C(=O)O)C2)cc1 has a documented IC50 of 38.6

Assay Programmed cell death protein 1/Programmed cell death 1 ligand 1 (Homo sapiens), sample COc1ccc(/C=C\c2cc(OC)c(OC)c(OC)c2)cc1OCc1ccc(CN2CC(C(=O)O)C2)cc1 , IC50 read: 42

###

measurementTarget: Programmed cell death protein 1/Programmed cell death 1 ligand 1 (Homo sapiens)
testDescription: Inhibition of PD1/PDL1 (unknown origin) protein-protein interaction measured after 15 mins by HTRF assay
IC50 values by entry

Examples with their reported IC50 follow.
COc1ccc(/C=C\c2cc(OC)c(OC)c(OC)c2)cc1OCc1ccc(CN2CCCCC2C(=O)NCCNC(=O)OC(C)(C)C)cc1 (centres undefined) : > 100 µM
COc1ccc(/C=C\c2cc(OC)c(OC)c(OC)c2)cc1OCc1ccc(CO)cc1 : > 100 µM

GET /value?item= COc1ccc(/C=C\c2cc(OC)c(OC)c(OC)c2)cc1OCc1ccc(CN2CCCC[C@@H]2C(=O)O)cc1 &field=IC50 returns > 100 µM

// field: IC50; key: COc1ccc(/C=C\c2cc(OC)c(OC)c(OC)c2)cc1OCc1ccc(CN[C@H](C(=O)O)[C@H](C)O)cc1 ; value = 58.6 µM

###

Test system: HeLa
testDescription: Antiproliferative activity against human HeLa cells assessed as reduction in cell viability measured after 48 hrs by CCK8 assay
Format: functional, cell-based
Consider the following molecules and their measured pIC50 readings.
Note: pIC50 values are expressed as the negative base-10 logarithm of concentration in M.

Recorded results for 3 molecules are shown here.
COc1ccc(/C=C\c2cc(OC)c(OC)c(OC)c2)cc1OCc1ccc(CN2CC[C@@H](C(=O)O)C2)cc1 : 4.89
COc1ccc(/C=C\c2cc(OC)c(OC)c(OC)c2)cc1OCc1ccc(CN2CCCCC2C(=O)NCCNC(=O)OC(C)(C)C)cc1 (centres undefined) : 5.70
COc1ccc(/C=C\c2cc(OC)c(OC)c(OC)c2)cc1OCc1ccc(CN2CC(C(=O)O)C2)cc1 : 5.19

Read the next record carefully.
Per the records, this molecule ( COc1ccc(/C=C\c2cc(OC)c(OC)c(OC)c2)cc1O [COMBRETASTATIN A4] ) has pIC50 equal to 7.22

###

Tested on: MC-38
testDescription: Antiproliferative activity against mouse MC38 cells assessed as reduction in cell viability measured after 48 hrs by CCK8 assay
Assay type: functional, cell-based
protocolConditions: MC-38, 48 h
Please use rule met for IC50 under 6 µM and rule not met for everything else, ties included.

COc1ccc(/C=C\c2cc(OC)c(OC)c(OC)c2)cc1OCc1ccc(CN2CC(C(=O)O)C2)cc1 : rule not met
COc1ccc(/C=C\c2cc(OC)c(OC)c(OC)c2)cc1OCc1ccc(CNCCO)cc1 : rule met
COc1ccc(/C=C\c2cc(OC)c(OC)c(OC)c2)cc1OCc1ccc(CN2CC[C@H](C(=O)O)C2)cc1 : rule not met
COc1ccc(/C=C\c2cc(OC)c(OC)c(OC)c2)cc1OCc1ccc(CN2CC[C@@H](C(=O)O)C2)cc1 : rule not met
COc1ccc(/C=C\c2cc(OC)c(OC)c(OC)c2)cc1OCc1ccc(CN2CC[C@H](O)C2)cc1 : rule not met

# TODO verify IC50 < 6 µM strictly for this compound: COc1ccc(/C=C\c2cc(OC)c(OC)c(OC)c2)cc1OCc1ccc(CN2CCCCC2C(=O)NCCNC(=O)OC(C)(C)C)cc1 (configuration not stated)
rule met

Consider the compound COc1ccc(/C=C\c2cc(OC)c(OC)c(OC)c2)cc1OCc1ccc(CN2C[C@H](O)C[C@@H]2C(=O)O)cc1 . Is its IC50 strictly less than 6 µM?
rule not met

###

Tested on: MC-38
testDescription: Antiproliferative activity against mouse MC38 cells assessed as reduction in cell viability measured after 48 hrs by CCK8 assay
Assay type: functional, cell-based
protocolConditions: MC-38, 48 h
Catalogue of pIC50 readings, one per entry.
pIC50 (log units): -log10 of the concentration in mol/L.

COc1ccc(/C=C\c2cc(OC)c(OC)c(OC)c2)cc1O : 7.10
COc1ccc(/C=C\c2cc(OC)c(OC)c(OC)c2)cc1OCc1ccc(CN2CC[C@@H](O)C2)cc1 : 5.16
COc1ccc(/C=C\c2cc(OC)c(OC)c(OC)c2)cc1OCc1ccc(CN2CCCCC2C(=O)O)cc1 (stereo not given) : 5.27
COc1ccc(/C=C\c2cc(OC)c(OC)c(OC)c2)cc1OCc1ccc(CO)cc1 : 5.24

Switching to the query record.
Recorded pIC50 (molecule COc1ccc(/C=C\c2cc(OC)c(OC)c(OC)c2)cc1OCc1ccc(CNCCN(C)C)cc1 ): 5.85
